molecular target: T1, human CCR8 (human, UniProt P51685 1-355); assay: flow cytometry, purified Fab on CHO-hCCR8 cells
T1 construct: Full-length human CCR8 stably expressed on CHO or HEK293 cells; also endogenous on HuT78 cells in one ADCC assay; also called hCCR8; CHO-hCCR8
T1 sequence (P51685 whole entry): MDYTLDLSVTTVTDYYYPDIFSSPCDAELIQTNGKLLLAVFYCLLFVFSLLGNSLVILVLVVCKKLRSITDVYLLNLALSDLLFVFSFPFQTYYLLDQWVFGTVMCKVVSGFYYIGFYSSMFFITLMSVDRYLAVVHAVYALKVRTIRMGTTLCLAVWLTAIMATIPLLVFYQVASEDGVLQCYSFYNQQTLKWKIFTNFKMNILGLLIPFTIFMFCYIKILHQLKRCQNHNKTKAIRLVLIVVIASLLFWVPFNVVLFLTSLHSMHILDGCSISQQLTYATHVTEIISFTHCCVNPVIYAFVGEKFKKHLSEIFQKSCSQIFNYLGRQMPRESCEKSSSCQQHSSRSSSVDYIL
parameter.measured: pEC50
The quantity pEC50 is defined as the negative base-10 logarithm of the molar concentration.

Sample answers from the record:
Identify the reported pEC50 for the following entry. 144D2 G34R (Fab, V domains shown, Purified Fab mutant) VH: EVQLVESGGGLVQPKGSLKLSCAASGFTFNAFAMNWVRQAPGKGLEWVARIRSKSNNYATYYADSVIDRFTISRDDSQSMLYLQMNNLKTEDTAMYYCVRGKEAGAYYAMDYWGQGTSVTVSS VL: DIVMTQAAPSVPVTPGESVSISCRSSKSLLHSNRNTYLYWFLQRPGQSPQLLIYRMSNLASGVPDRFSGSGSGTAFTLRISRVEAEDVGVYYCMQHLEYPLTFGAGTKLEIK 8.87

Identify the reported pEC50 for the following entry. 144D2 G34V (Fab, V domains shown, Purified Fab mutant) VH: EVQLVESGGGLVQPKGSLKLSCAASGFTFNAFAMNWVRQAPGKGLEWVARIRSKSNNYATYYADSVIDRFTISRDDSQSMLYLQMNNLKTEDTAMYYCVRGKEAGAYYAMDYWGQGTSVTVSS VL: DIVMTQAAPSVPVTPGESVSISCRSSKSLLHSNVNTYLYWFLQRPGQSPQLLIYRMSNLASGVPDRFSGSGSGTAFTLRISRVEAEDVGVYYCMQHLEYPLTFGAGTKLEIK 8.50

Identify the reported pEC50 for the following entry. 144D2 N33A (Fab, V domains shown, Purified Fab mutant from E. coli TG1, Ni-NTA purified) VH: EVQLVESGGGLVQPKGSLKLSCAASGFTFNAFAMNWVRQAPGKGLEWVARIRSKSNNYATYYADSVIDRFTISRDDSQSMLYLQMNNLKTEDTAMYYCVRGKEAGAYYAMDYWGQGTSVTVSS VL: DIVMTQAAPSVPVTPGESVSISCRSSKSLLHSAGNTYLYWFLQRPGQSPQLLIYRMSNLASGVPDRFSGSGSGTAFTLRISRVEAEDVGVYYCMQHLEYPLTFGAGTKLEIK 8.08

Identify the reported pEC50 for the following entry. 144D2 N33Y (Fab, V domains shown, Purified Fab mutant) VH: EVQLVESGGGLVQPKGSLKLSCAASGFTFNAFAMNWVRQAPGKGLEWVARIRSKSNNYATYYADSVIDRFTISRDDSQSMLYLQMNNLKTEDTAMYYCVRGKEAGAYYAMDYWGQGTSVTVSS VL: DIVMTQAAPSVPVTPGESVSISCRSSKSLLHSYGNTYLYWFLQRPGQSPQLLIYRMSNLASGVPDRFSGSGSGTAFTLRISRVEAEDVGVYYCMQHLEYPLTFGAGTKLEIK 7.86

Identify the reported pEC50 for the following entry. 144D2 N33V (Fab, V domains shown, Purified Fab mutant) VH: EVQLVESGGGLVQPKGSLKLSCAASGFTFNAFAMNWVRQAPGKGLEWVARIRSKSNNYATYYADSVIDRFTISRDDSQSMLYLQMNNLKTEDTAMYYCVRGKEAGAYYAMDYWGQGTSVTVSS VL: DIVMTQAAPSVPVTPGESVSISCRSSKSLLHSVGNTYLYWFLQRPGQSPQLLIYRMSNLASGVPDRFSGSGSGTAFTLRISRVEAEDVGVYYCMQHLEYPLTFGAGTKLEIK 8.24

Further cases:
Identify the reported pEC50 for the following entry. 144D2 G34T (Fab, V domains shown, Purified Fab mutant) VH: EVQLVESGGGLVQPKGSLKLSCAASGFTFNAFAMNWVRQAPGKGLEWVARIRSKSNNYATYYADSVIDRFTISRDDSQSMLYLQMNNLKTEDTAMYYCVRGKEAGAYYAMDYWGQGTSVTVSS VL: DIVMTQAAPSVPVTPGESVSISCRSSKSLLHSNTNTYLYWFLQRPGQSPQLLIYRMSNLASGVPDRFSGSGSGTAFTLRISRVEAEDVGVYYCMQHLEYPLTFGAGTKLEIK 8.55

Identify the reported pEC50 for the following entry. 144D2 G34I (Fab, V domains shown, Purified Fab mutant) VH: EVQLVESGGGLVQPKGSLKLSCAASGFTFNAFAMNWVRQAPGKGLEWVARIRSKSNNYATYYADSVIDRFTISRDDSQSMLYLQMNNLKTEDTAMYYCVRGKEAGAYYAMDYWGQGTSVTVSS VL: DIVMTQAAPSVPVTPGESVSISCRSSKSLLHSNINTYLYWFLQRPGQSPQLLIYRMSNLASGVPDRFSGSGSGTAFTLRISRVEAEDVGVYYCMQHLEYPLTFGAGTKLEIK 8.41
